- target-or-system: SARS-CoV-2 Papain like protease (PLpro) (Severe acute respiratory syndrome coronavirus 2 (2019-nCoV) (SARS-CoV-2))
- assay-name: Papain Like Protease (PLpro) biochemical assay with profluorogenic substrate Z-RLRGG-AMC
- condition-summary: SARS-CoV-2 PLpro 6.25 nM, 25 μM Z-RLRGG-AMC substrate, 60 minute reaction; read-out: IC50
attribute-measured: IC50

-- ask Name the recorded IC50 of the item COCC(OCc1cscn1)c1ccc(C(=O)NC2(c3cc(-c4cnn(C)c4)cc4nc(C)ccc34)CC2)c(C)c1 (stereo not drawn) in your answer.
-- reply < 1 nM

-- ask Name the recorded IC50 of the item Cc1cc(CC(=O)Nc2ncsc2C)ccc1C(=O)N[C@H](C)c1cc(-c2cnn(C)c2)nc2ccccc12 in your answer.
-- reply < 1 nM

Lab note: next molecule to report on.
-- ask Name the recorded IC50 of the item Cc1cc(COCc2cscn2)ccc1C(=O)NC1(c2cc(-c3cnn(CC(=O)N(C)C)c3)nc3ccccc23)CC1 in your answer.
-- reply < 1 nM

---

The entries below come with measured pIC50 values attached.
- target-or-system: SARS-CoV-2 Papain like protease (PLpro) (Severe acute respiratory syndrome coronavirus 2 (2019-nCoV) (SARS-CoV-2))
- assay-name: Papain Like Protease (PLpro) biochemical assay with profluorogenic substrate Z-RLRGG-AMC
- condition-summary: SARS-CoV-2 PLpro 6.25 nM, 25 μM Z-RLRGG-AMC substrate, 60 minute reaction; read-out: IC50
pIC50: −log10 of the molar value.

-- ask Name the recorded pIC50 of the item COCC(OCc1cscn1)c1ccc(C(=O)N[C@H](C)c2cc(-c3cnn(C)c3)nc3ccccc23)c(C)c1 (mixture of isomers) [Example 331] in your answer.
-- reply > 9.00

More entries:
-- ask Name the recorded pIC50 of the item Cc1cc(COCc2cscn2)ccc1C(=O)NC1(c2cc(-c3cnn(CC(N)=O)c3)nc3ccccc23)CC1 [Example 352] in your answer.
-- reply > 9.00

-- ask Name the recorded pIC50 of the item Cc1cc(COCc2cscn2)ccc1C(=O)NC1(c2cc(-c3cnn(C)c3)cc3nc(O)ccc23)CC1 [Example 358] in your answer.
-- reply > 9.00

---

- target-or-system: SARS-CoV-2 Papain like protease (PLpro) (Severe acute respiratory syndrome coronavirus 2 (2019-nCoV) (SARS-CoV-2))
- assay-name: Papain Like Protease (PLpro) biochemical assay with profluorogenic substrate Z-RLRGG-AMC
- condition-summary: SARS-CoV-2 PLpro 6.25 nM, 25 μM Z-RLRGG-AMC substrate, 60 minute reaction; read-out: IC50
attribute-measured: IC50 (nM)
The reply should contain only the number, in nM.

Worked cases, IC50 given:
-- ask Name the recorded IC50 of the item Cc1ccc(CN)cc1C(=O)NC(C)c1cc(-c2cnn(C)c2)c(O)c2ccccc12 (centres unmarked) in your answer.
-- reply 119

-- ask Name the recorded IC50 of the item CNC(=O)Cc1ccc(C(=O)N[C@H](C)c2cc(-c3cnn(C)c3)nc3ccccc23)c(C)c1 in your answer.
-- reply 147

-- ask Name the recorded IC50 of the item Cc1ccccc1C(=O)NC(C)c1cc(NC2(C#N)CC2)nc2ccccc12 (centres unmarked) in your answer.
-- reply 2520

More entries:
-- ask Name the recorded IC50 of the item CC(C)OC(=O)/C=C/C(=O)NNC(=O)CCc1ccccc1C(=O)N[C@H](C)c1cc(-c2cnn(C)c2)nc2ccccc12 in your answer.
-- reply 3

-- ask Name the recorded IC50 of the item Cc1cc(C(=O)NCc2nccn2C)ccc1C(=O)NC1(c2cc(-c3cnn(C)c3)nc3ccccc23)CC1 in your answer.
-- reply 6

-- ask Name the recorded IC50 of the item COC(=O)/C=C/C(=O)NNC(=O)CCc1ccccc1C(=O)NC1(c2cc(-c3cnn(C)c3)nc3ccccc23)CC1 in your answer.
-- reply 6

-- ask Name the recorded IC50 of the item Cc1ccccc1C(=O)NC(C)c1cc(NC2CCOC2)nc2ccccc12 (centres unmarked) in your answer.
-- reply 900

---

- target-or-system: SARS-CoV-2 Papain like protease (PLpro) (Severe acute respiratory syndrome coronavirus 2 (2019-nCoV) (SARS-CoV-2))
- assay-name: Papain Like Protease (PLpro) biochemical assay with profluorogenic substrate Z-RLRGG-AMC
- condition-summary: SARS-CoV-2 PLpro 6.25 nM, 25 μM Z-RLRGG-AMC substrate, 60 minute reaction; read-out: IC50
The entries below come with measured IC50 values attached.
The reply should contain only the number, in µM.

Worked cases, IC50 given:
-- ask Name the recorded IC50 of the item COC(=O)c1c[nH]c(-c2cc([C@@H](C)NC(=O)c3cc(CN)ccc3C)c3ccccc3n2)c1 in your answer.
-- reply 0.015

-- ask Name the recorded IC50 of the item Cc1cc(CNCc2cscn2)ccc1C(=O)NC(C)c1cc(-c2cnn(C)c2)cc2ccccc12 (stereo not shown) in your answer.
-- reply 0.013

-- ask Name the recorded IC50 of the item Cc1cc(CNCc2cscn2)ccc1C(=O)NC1(c2cc(-c3cnn(C)c3)nc3ccccc23)CC1 in your answer.
-- reply 0.006

More entries:
-- ask Name the recorded IC50 of the item Cc1ccc(NC(=O)[C@H]2CCCCN2)cc1C(=O)NC(C)c1cc(-c2cn[nH]c2)cc2ccccc12 (single isomer, unassigned) [Example 52] in your answer.
-- reply 0.011
